Target: Glycylpeptide N-tetradecanoyltransferase (Plasmodium falciparum (isolate 3D7))
Test: Binding affinity to Plasmodium falciparum NMT (27 to 410 residues) expressed in Escherichia coli Rosetta (DE3) assessed as change in melting temperature at 100 uM in presence of 100 uM myristoyl-CoA by Sypro orange dye based differential scanning fluorimetry (reference value: 0 degreeC)
MEASURE NAME: ΔTm (°C)

Worked examples follow.
(Q) Find the recorded ΔTm belonging to `Clc1cccc(O[C@H]2C[C@H](NCc3cnc4[nH]ccc4c3)C2)c1Cl` and report it.
(A) 6.57

(Q) What do we get for O=C(c1ccc2c(c1)N(Cc1ccccc1)C(=O)c1ccccc1[S+]2[O-])N1CCCCC1 (stereo not given) ?
(A) 8.05

(Q) What do we get for `CCN(c1ccccc1)S(=O)(=O)c1ccc(Cl)c(C(=O)Nc2ccccc2N2CCCC2=O)c1` ?
(A) 7.33

[1] Cc1ccc(-n2nc(C(=O)N3CCCN(C)CC3)c3ccccc32)cc1
[2] O=C(c1cccc(NCc2cc(-c3ccc(Cl)cc3)c[nH]c2=O)c1)N1CCOCC1
(Q) Looking only at measured ΔTm, which entry is lower, 1 or 2 ? I would appreciate it if you answered with the label of your choice.
(A) 2
(2: 2.16 °C, 1: 6.17 °C)

====

Molecular target: Glycylpeptide N-tetradecanoyltransferase (Plasmodium falciparum (isolate 3D7)) (UniProt Q8ILW6)
Sequence (whole entry): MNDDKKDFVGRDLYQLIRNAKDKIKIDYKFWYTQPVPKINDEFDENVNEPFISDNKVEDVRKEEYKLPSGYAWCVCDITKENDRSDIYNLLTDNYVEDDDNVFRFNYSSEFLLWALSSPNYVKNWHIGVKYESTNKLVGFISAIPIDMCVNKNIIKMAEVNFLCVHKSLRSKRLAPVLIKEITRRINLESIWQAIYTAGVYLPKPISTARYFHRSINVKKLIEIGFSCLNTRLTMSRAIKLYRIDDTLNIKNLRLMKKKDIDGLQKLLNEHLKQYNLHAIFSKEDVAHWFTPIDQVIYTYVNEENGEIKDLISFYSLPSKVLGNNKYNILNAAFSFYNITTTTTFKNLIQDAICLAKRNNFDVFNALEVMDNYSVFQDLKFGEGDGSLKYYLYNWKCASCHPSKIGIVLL
Assay: Binding affinity to Plasmodium falciparum NMT (27 to 410 residues) expressed in Escherichia coli Rosetta (DE3) assessed as change in melting temperature at 100 uM in absence of 100 uM myristoyl-CoA by Sypro orange dye based differential scanning fluorimetry (reference value: 0 degreeC)
MEASURE NAME: ΔTm (°C)

Worked examples follow.
(Q) Find the recorded ΔTm belonging to `Cc1ccc(-n2nc(C(=O)N3CCCN(C)CC3)c3ccccc32)cc1` and report it.
(A) -0.02

(Q) What do we get for `O=C(c1cccc(NCc2cc(-c3ccc(Cl)cc3)c[nH]c2=O)c1)N1CCOCC1` ?
(A) -0.3

(Q) What do we get for `CCN(c1ccccc1)S(=O)(=O)c1ccc(Cl)c(C(=O)Nc2ccccc2N2CCCC2=O)c1` ?
(A) 1.42

[A] O=C(c1ccc2c(c1)N(Cc1ccccc1)C(=O)c1ccccc1[S+]2[O-])N1CCCCC1 (stereo not given)
[B] Clc1cccc(O[C@H]2C[C@H](NCc3cnc4[nH]ccc4c3)C2)c1Cl
(Q) Given A and B , report the one with the higher recorded ΔTm. I would appreciate it if you answered with the label of your choice.
(A) A
(A: 1.84 °C, B: -2.91 °C)

Reference source: ChEMBL document CHEMBL4376863
